- target.system: human CD33 N20V (human, UniProt P20138 18-364)
- Sequence (P20138 18-364 N20V limits assumed): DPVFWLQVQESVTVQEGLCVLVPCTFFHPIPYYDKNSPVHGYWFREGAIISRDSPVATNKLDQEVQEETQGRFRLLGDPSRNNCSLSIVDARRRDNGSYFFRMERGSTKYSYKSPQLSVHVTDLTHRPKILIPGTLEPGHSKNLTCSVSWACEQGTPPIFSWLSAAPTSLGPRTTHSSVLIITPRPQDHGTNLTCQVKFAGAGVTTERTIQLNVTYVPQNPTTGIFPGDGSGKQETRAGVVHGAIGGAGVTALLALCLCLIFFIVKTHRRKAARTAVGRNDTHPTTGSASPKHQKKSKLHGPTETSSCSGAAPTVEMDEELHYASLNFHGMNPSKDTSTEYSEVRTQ
- test: flow cytometry, mutant on cells, IgG
recorded.metric: Mean % WT Binding

Request: # return recorded Mean % WT Binding for input Refmab #3 (antibody, human IgG1, V domains shown, Tested in IgG format; human IgG1 Fc silent (PG-LALA)) VH: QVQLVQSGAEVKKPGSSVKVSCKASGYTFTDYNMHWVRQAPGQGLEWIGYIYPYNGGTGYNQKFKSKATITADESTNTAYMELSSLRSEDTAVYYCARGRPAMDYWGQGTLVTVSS VL: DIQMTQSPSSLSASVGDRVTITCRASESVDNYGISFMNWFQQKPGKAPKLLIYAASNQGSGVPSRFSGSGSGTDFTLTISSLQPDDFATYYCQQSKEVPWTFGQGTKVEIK
Response: 0.5 % WT binding

Request: # return recorded Mean % WT Binding for input Refmab #1 (antibody, human IgG1, V domains shown, Tested in IgG format; human IgG1 (Absolute Antibody hP67.6, Cat. No. Ab00283-10.0); also called hP67.6) VH: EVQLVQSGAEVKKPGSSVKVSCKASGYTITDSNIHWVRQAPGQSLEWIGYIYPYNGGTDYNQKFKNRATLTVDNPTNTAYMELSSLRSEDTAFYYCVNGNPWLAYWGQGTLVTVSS VL: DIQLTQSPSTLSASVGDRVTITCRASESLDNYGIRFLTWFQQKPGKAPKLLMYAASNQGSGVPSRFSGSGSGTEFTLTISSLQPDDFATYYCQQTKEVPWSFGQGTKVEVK
Response: 4.2 % WT binding

Let us examine a further case.
Request: # return recorded Mean % WT Binding for input Refmab #2 (antibody, human IgG1, V domains shown, Tested in IgG format; human IgG1 Fc silent (PG-LALA)) VH: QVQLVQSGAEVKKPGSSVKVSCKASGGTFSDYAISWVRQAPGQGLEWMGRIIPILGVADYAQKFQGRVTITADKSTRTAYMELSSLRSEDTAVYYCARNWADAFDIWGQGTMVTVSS VL: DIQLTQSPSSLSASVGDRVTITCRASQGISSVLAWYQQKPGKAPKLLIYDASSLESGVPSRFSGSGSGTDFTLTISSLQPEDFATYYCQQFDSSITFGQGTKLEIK
Response: 116 % WT binding

Sourced from patent US20260242735A1
